Z-score by entry:
molecular target: Human IP6K1 (Homo sapiens, UniProt Q92551); construct: GST (N, cleaved yes); made in house; host or cells: C43 E. coli, pGEX-6P-2; experiment: IP6K1 high-throughput screen of the Sigma LOPAC (ADP-Glo Max, single point); assay type: biochemical;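 note: final compound concentration 10µM in 5% DMSO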
Sequence (Q92551 whole entry): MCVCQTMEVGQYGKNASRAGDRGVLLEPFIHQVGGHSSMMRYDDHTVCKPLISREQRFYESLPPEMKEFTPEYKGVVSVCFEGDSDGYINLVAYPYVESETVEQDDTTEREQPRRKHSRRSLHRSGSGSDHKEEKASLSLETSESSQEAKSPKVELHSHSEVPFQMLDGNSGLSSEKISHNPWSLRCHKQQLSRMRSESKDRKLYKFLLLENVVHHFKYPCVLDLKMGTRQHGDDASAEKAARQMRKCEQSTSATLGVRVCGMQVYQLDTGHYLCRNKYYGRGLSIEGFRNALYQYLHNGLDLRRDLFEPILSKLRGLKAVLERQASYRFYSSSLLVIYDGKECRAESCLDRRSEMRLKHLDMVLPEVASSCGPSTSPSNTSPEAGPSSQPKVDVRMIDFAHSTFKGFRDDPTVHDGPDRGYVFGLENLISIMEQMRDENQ
Counter-ions that a name gives are not always drawn.
Please reply with the value in numeric form only.

Study these solved cases before continuing.
* CC(C)c1cccc(C(C)C)c1O | -1.436
* C[C@]12CC[C@@H](O)C[C@@H]1CC[C@@H]1[C@@H]2CC[C@]2(C)C(=O)CC[C@@H]12 | -0.6195
* CCN(CC)CC.Nc1ncnc2c1ncn2C1OC2COP(O)(=S)O[C@@H]2[C@@H]1O (some centres unmarked) | -0.3907
* N=C(N)SCCc1cnc[nH]1 [Imetit dihydrobromide] | 1.063

Could you now look at the following molecule, please?
Data point: `O=C(O)/C(=C/c1c(C(=O)O)[nH]c2cc(Cl)cc(Cl)c12)c1ccccc1` ; Z-score = 0.03839

====

molecular target: Human IP6K1 (Homo sapiens, UniProt Q92551); construct: GST (N, cleaved yes); made in house; host or cells: C43 E. coli, pGEX-6P-2; test: IP6K1 high-throughput screen of the Sigma LOPAC (ADP-Glo Max, single point); format: biochemical; settings: LOPAC single-point screen; Z-score from raw signal with plate average and StDev;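 note: final compound concentration 10µM in 5% DMSO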
Counter-ions that a name gives are not always drawn.
Mark each entry yes if its Z-score sits below -0.3, and no for all others.

Worked examples follow.
- Nc1ccncc1: no
- Cc1cc(C(C)(C)C)c(O)c(C)c1CC1=NCCN1 [Oxymetazoline hydrochloride]: yes
- CC(C)(C)NCC(O)c1ccc(O)c(CO)c1.CC(C)(C)NCC(O)c1ccc(O)c(CO)c1.O=S(=O)(O)O (stereo not drawn) [Albuterol hemisulfate]: no
- N#C/C(=C\c1ccc(O)c(O)c1)C(=O)NCc1ccccc1: yes
- C[C@]12CCC(=O)C=C1CC[C@@H]1[C@@H]2[C@@H](O)C[C@@]2(C)[C@H]1CC[C@]2(O)C(=O)CO [Hydrocortisone]: no

q: Lab note: Z-score threshold -0.3. Does this compound come in strictly under it? C#CCN(C)Cc1ccccc1 [Pargyline hydrochloride]
a: yes

====

biological target: Human IP6K1 (Homo sapiens); construct: GST (N, cleaved yes); made in house; host or cells: C43 E. coli, pGEX-6P-2; experiment: IP6K1 high-throughput screen of the Sigma LOPAC (ADP-Glo Max, single point); type: biochemical; conditions: LOPAC single-point screen, ADP-Glo Max raw signal per well
Counter-ions that a name gives are not always drawn.
Attribute: Raw Signal

Sample records with Raw Signal:
* Oc1ccc2c3c1O[C@H]1c4oc5ccccc5c4C[C@@]4(O)[C@@H](C2)N(CC2CC2)CC[C@]314 [Naltriben methanesulfonate] | 55337
* Nc1c2c(nc3ccccc13)CCCC2O.O=C(O)/C=C\C(=O)O (stereo not shown) [Hydroxytacrine maleate] | 53095
* C/C=C(/C)C(=O)O[C@H]1C(C)=C2[C@H]([C@@H]1OC(=O)CCCCCCC)[C@@](C)(OC(C)=O)C[C@H](OC(=O)CCC)[C@@]1(O)[C@H]2OC(=O)[C@@]1(C)O | 56574
* CCCCCCCCCCCCCCCC(=O)OC(CC(=O)O)C[N+](C)(C)C.[Cl-] (racemic) [Palmitoyl-DL-Carnitine chloride] | 51772

Per the reported Human IP6K1 (Homo sapiens) data, O=C(O)C1=CCNCC1 [Isoguvacine hydrochloride] has Raw Signal of 53600

// assay Human IP6K1 (Homo sapiens), entry CCCN(CCC)C(=O)C(CCC(=O)O)NC(=O)c1ccccc1 (stereo not shown) [Proglumide] , Raw Signal value = 53192

The compound Oc1cc2c(cc1O)CN(C(=S)NCCc1ccc(Cl)cc1)CCC2 [Capsazepine] , when measured on Human IP6K1 (Homo sapiens), yielded Raw Signal of 54995

With Human IP6K1 (Homo sapiens) as the test system, `Nc1nnc(-c2cccc(Cl)c2Cl)c(N)n1` showed Raw Signal of 53800

Response field Raw Signal (Human IP6K1 (Homo sapiens)) for item CCOC(=O)Nc1ccc(NCc2ccc(F)cc2)nc1N [Flupirtine maleate] : 54811

Bench note, Human IP6K1 (Homo sapiens): COCCOC(=O)C1=C(C)NC(C)=C(C(=O)OC(C)C)C1c1cccc([N+](=O)[O-])c1 (stereo not shown) , Raw Signal reads 55940

Human IP6K1 (Homo sapiens) Raw Signal of CCOC(=O)C(C)(C)Oc1ccc(Cl)cc1 [Clofibrate] is 58171

So the reported Raw Signal for `NC(=O)c1ncn([C@@H]2O[C@H](CO)[C@@H](O)[C@H]2O)n1` , on Human IP6K1 (Homo sapiens), turned out to be 54731

Form field Raw Signal for item CC1COc2c(N3CCN(C)CC3)c(F)cc3c(=O)c(C(=O)O)cn1c23 (stereo not shown) on Human IP6K1 (Homo sapiens): 52269

The recorded Raw Signal with Human IP6K1 (Homo sapiens) for CCCN1C[C@H](CSC)C[C@@H]2c3cccc4[nH]cc(c34)C[C@H]21 [Pergolide methanesulfonate] was 53757

Measured Raw Signal for this entry N[C@@H]1C[C@H]1c1ccccc1 [Tranylcypromine hydrochloride] on Human IP6K1 (Homo sapiens): 55566

Reported Raw Signal (Human IP6K1 (Homo sapiens)) for entry `Oc1ncnc2[nH]ncc12` is 56130
